- measurementTarget: histamine H2 -receptors (isolated guinea pig right atria) (Cavia porcellus)
- Construct: The spontaneously beating right atrium was dissected free from other tissues; from tissue; host or cells: isolated spontaneously beating right atrium of male Hartley guinea pigs
- Sequence (P47747 whole entry): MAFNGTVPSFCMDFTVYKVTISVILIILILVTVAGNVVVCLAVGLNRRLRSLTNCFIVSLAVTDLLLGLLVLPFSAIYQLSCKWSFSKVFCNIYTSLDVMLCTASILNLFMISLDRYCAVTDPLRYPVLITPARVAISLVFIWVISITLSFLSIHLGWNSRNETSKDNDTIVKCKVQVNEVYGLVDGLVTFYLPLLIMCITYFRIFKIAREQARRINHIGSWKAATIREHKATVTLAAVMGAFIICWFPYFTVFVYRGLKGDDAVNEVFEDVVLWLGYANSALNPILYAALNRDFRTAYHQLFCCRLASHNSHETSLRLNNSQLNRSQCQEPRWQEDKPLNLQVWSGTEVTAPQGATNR
- testDetails: Histamine H2-receptor antagonism, isolated guinea pig atria assay
- Assay type: cell-based, guinea pig (male Hartley strain)
- conditionsUsed: test compound 3 × 10^-5 M
Record form. Attribute: Concentration-Response Curve Displacement Factor. Fill in for each entry.
Answers are plain numbers.

Some compounds with known Concentration-Response Curve Displacement Factor results, for comparison:
CN=C(NC#N)NCCSCc1nc[nH]c1C
25.26
C#CCNC(=C[N+](=O)[O-])NCCSCc1ccc(CN(C)C)o1
181.67
C#CCNC(=NCCSCc1ccc(CN(C)C)o1)NC#N
23.78

If you can, please state the reported Concentration-Response Curve Displacement Factor value of CNC(=C[N+](=O)[O-])NCCSCc1ccc(CN(C)C)o1 [Compound XVI, reference compound] . 38.61

###

- measurementTarget: histamine H2 -receptors (isolated guinea pig right atria) (Cavia porcellus)
- Construct: The spontaneously beating right atrium was dissected free from other tissues; from tissue; host or cells: isolated spontaneously beating right atrium of male Hartley guinea pigs
- testDetails: Histamine H2-receptor antagonism, isolated guinea pig atria assay
- Type: cell-based, guinea pig (male Hartley strain)
- conditionsUsed: histamine ED50 in presence of test compound 3 × 10^-5 M, 30 minute incubation
reportedMetric: Histamine ED50 With 95% Confidence Limits (µg/mL)
Numbers only, in µg/mL.

C#CCNC(=NCCSCc1ccc(CN(C)C)o1)NC#N
4.28

Value sought for every listed compound: Histamine ED50 With 95% Confidence Limits.
1. CN=C(NC#N)NCCSCc1nc[nH]c1C
2. C#CCNC(=C[N+](=O)[O-])NCCSCc1ccc(CN(C)C)o1
3. CNC(=C[N+](=O)[O-])NCCSCc1ccc(CN(C)C)o1 [Compound XVI, reference compound]

4.80
32.70
11.97
